Tested on: CCRF-CEM leukemia
Assay: NCI-60 one-dose screen, 48 h (100 = growth as untreated, 0 = no growth, -100 = all killed)
Details: 10 µM
This is part of a sample that, as a whole, favours compounds with a hit. Of some 83,000 tested, about 20% had one in any assay.
Hi, to clarify the labels: rule met covers growth from 90% upward, rule not met covers anything below 90%.

{"columns": ["Molecule", "Answer label"],
 "data": [
  ["CCCCCCCCCCCCCCCc1ccc(N)c(OC2OC(CO)C(O)C(O)C2O)c1 (stereo not drawn)", "rule not met"],
  ["C/C(=C\\c1ccccc1)c1ccccn1", "rule met"],
  ["CCCCCCCCCCCCCCCCC(C(=O)O)C(O)(CC(=O)O)C(=O)O (stereo not drawn)", "rule not met"],
  ["CC(=O)NCC(=O)c1ccc([N+](=O)[O-])cc1", "rule met"],
  ["Oc1ccc(Cc2ccccc2Cl)c(O)c1", "rule met"],
  ["O=C1OC(c2ccccc2)=N/C1=C\\c1ccccc1", "rule met"],
  ["ClCCOCCOc1ccc(C2CCCCC2)cc1", "rule met"],
  ["O=CN1CCCCC1", "rule met"],
  ["CC(=O)OC(C)C(=O)NCC(C)O (stereo not drawn)", "rule met"],
  ["Cc1ccc(S(=O)(=O)c2ccccc2)cc1", "rule not met"],
  ["CCCCCCCCCCNC(=O)CI", "rule not met"],
  ["CC1=C/C(O)CC(=O)Cc2nc(co2)C(=O)N2CCC=C2C(=O)OC(C(C)C)C(C)/C=C\\C(=O)NC/C=C\\1 (stereo not drawn)", "rule not met"],
  ["CCCCOC(=O)/C=C\\C(=O)NC(N)=O", "rule not met"],
  ["c1ccc2c(c1)OC1OC2Oc2ccccc21", "rule met"]
]}

* * *

Tested on: ACHN renal
Experiment: NCI-60 one-dose screen, 48 h (100 = growth as untreated, 0 = no growth, -100 = all killed)
Conditions: 10 µM unless noted
This is part of a sample that, as a whole, favours compounds with a hit. Of some 83,000 tested, about 20% had one in any assay. Activity calls are given as the source filed them. The calls were made as follows: active = growth percent below 10; inactive = the rest.

{"columns": ["Compound", "Measured target", "growth"],
 "data": [
  ["Cc1cc(-c2cc(C)c(O)c(C)c2)cc(C)c1O", "ACHN renal", "92.1% (inactive)"],
  ["c1ccc(-c2nc3ccccc3s2)cc1", "ACHN renal", "87.1% (inactive)"],
  ["NC(=O)NCCCC(N)C(=O)O (stereo not drawn)", "ACHN renal", "98.7% (inactive)"],
  ["OCC1OC(O)C(O)C(O)C1O (stereo not drawn)", "ACHN renal", "99.9% (inactive)"],
  ["OCCN1CCCCCCC1", "ACHN renal", "103% (inactive)"],
  ["CC1=C/C(O)CC(=O)Cc2nc(co2)C(=O)N2CCC=C2C(=O)OC(C(C)C)C(C)/C=C\\C(=O)NC/C=C\\1 (stereo not drawn)", "ACHN renal", "86.2% (inactive)"],
  ["CC(C)NC(=O)N/C=C(\\C#N)C(N)=O", "ACHN renal", "94.8% (inactive)"],
  ["Oc1ccc(Cc2ccccc2Cl)c(O)c1", "ACHN renal", "92% (inactive)"],
  ["Cc1ccc(S(=O)(=O)c2ccccc2)cc1", "ACHN renal", "56% (inactive)"],
  ["O=C1OC(c2ccccc2)=N/C1=C\\c1ccccc1", "ACHN renal", "104% (inactive)"],
  ["Nc1nc(N)c2[nH]cnc2n1", "ACHN renal", "89.3% (inactive)"],
  ["COc1ccc(C(=O)CC(c2ccccc2)C(C#N)c2ccccc2)cc1 (stereo not drawn)", "ACHN renal", "88.8% (inactive)"],
  ["Nc1ncnc2c1ncn2C1OC(COP(=O)(O)O)C(O)C1O (stereo not drawn)", "ACHN renal", "103% (inactive)"],
  ["COc1ccc(Nc2ccc3ccccc3c2)cc1", "ACHN renal", "92% (inactive)"],
  ["Fc1ccc([I+]c2ccc(F)cc2)cc1", "ACHN renal", "79.5% (inactive)"],
  ["C/C(=C\\c1ccccc1)c1ccccn1", "ACHN renal", "105% (inactive)"],
  ["O=C(O)CCCl", "ACHN renal", "101% (inactive)"],
  ["CC(=O)NCC(=O)c1ccc([N+](=O)[O-])cc1", "ACHN renal", "103% (inactive)"]
]}

* * *

Test system: SW-620 colon
Assay: NCI-60 one-dose screen, 48 h (100 = growth as untreated, 0 = no growth, -100 = all killed)
Conditions: 10 µM unless noted
Experimental: Growth inhibition of the SW-620 human tumor cell line is measured as a screen for anti-cancer activity. Cells are grown in 96 well plates and exposed to the test compound for 48 hours. Compounds are tested at a single concentration, which is 10^-5 M for most compounds. The reported endpoint is percent growth (GI% or GIPRCNT), where numbers from 0 - 100% represent growth inhibition, and numbers from -100% - 0 represent cell death. For example, a value of 40 represents 60% growth inhibition. […]
About 83,000 compounds went through this panel and 20% of them were active in at least one assay; those are over-represented in the sample as a whole.
Property: growth (%)

{"columns": ["Compound", "Value units", "Observed measurement"],
 "data": [
  ["COc1cc(C(O)C2C(=O)OCC2C2(c3ccc4c(c3)OCO4)SCCCS2)cc(OC)c1OC (stereo unspecified)", "%", 102],
  ["O=C(/C=C/c1ccccc1)c1ccccc1", "%", 86.6],
  ["c1ccc(-c2nc3ccccc3s2)cc1", "%", 93.6],
  ["CC1=C/C(O)CC(=O)Cc2nc(co2)C(=O)N2CCC=C2C(=O)OC(C(C)C)C(C)/C=C\\C(=O)NC/C=C\\1 (stereo unspecified)", "%", 59.9],
  ["N#CC(C#N)N=Nc1ccc(Cl)cc1", "%", 15],
  ["c1ccc(CNCCNCc2ccccc2)cc1", "%", 107],
  ["O=C(O)CCCl", "%", 105],
  ["C#CCOC(=O)Nc1ccccc1", "%", 105],
  ["CC(C)C(C)(C)c1ccc(O)cc1", "%", 101],
  ["NC(=O)NCCCC(N)C(=O)O (stereo unspecified)", "%", 107],
  ["CCCCNc1ccc(Nc2ccccc2)cc1", "%", 84.3]
]}

* * *

System: COLO 205 colon
Assay: NCI-60 one-dose screen, 48 h (100 = growth as untreated, 0 = no growth, -100 = all killed)
Conditions: 10 µM unless noted
About 83,000 compounds went through this panel and 20% of them were active in at least one assay; those are over-represented in the sample as a whole.
growth overview

{"columns": ["Compound", "growth (%)"],
 "data": [
  ["CC(C)C(C)(C)c1ccc(O)cc1", 108],
  ["Nc1cc(N)c(N)cc1N", 95.7],
  ["O=CN1CCCCC1", 136],
  ["COc1cc(C(O)C2C(=O)OCC2C2(c3ccc4c(c3)OCO4)SCCCS2)cc(OC)c1OC (centres undefined)", 94.2],
  ["Nc1nc(N)c2[nH]cnc2n1", 97.6],
  ["CN(C)CC1CCCCCC(CN(C)C)C1=O (centres undefined)", -80.9],
  ["NN1CCOC(c2ccccc2)C1 (centres undefined)", 107],
  ["O=C(/C=C/c1ccccc1)c1ccccc1", 114],
  ["CCCCNc1ccc(Nc2ccccc2)cc1", 85],
  ["CCc1cc(C)cc(O)c1", 116],
  ["CC(=O)OC(C)C(=O)NCC(C)O (centres undefined)", 107],
  ["CCCCOC(=O)/C=C\\C(=O)NC(N)=O", 87.7],
  ["N#CC(C#N)N=Nc1ccc(Cl)cc1", -33.9],
  ["OCC1OC(O)C(O)C(O)C1O (centres undefined)", 108]
]}

* * *

Test system: NCI-H226 lung
Assay: NCI-60 one-dose screen, 48 h (100 = growth as untreated, 0 = no growth, -100 = all killed)
Conditions: 10 µM unless noted
The panel holds about 83,000 compounds, 20% with a hit somewhere; the sample as a whole holds those more often.

{"columns": ["Compound", "growth (%)"],
 "data": [
  ["CCCCCCCCCCNC(=O)CI", 76.7],
  ["Cc1cc(-c2ccc(N=Nc3ccc4c(S(=O)(=O)O)cc(S(=O)(=O)O)c(N)c4c3O)c(C)c2)ccc1N=Nc1ccc2c(S(=O)(=O)O)cc(S(=O)(=O)O)c(N)c2c1O", 89.2],
  ["CC1CCC2(OC1)OC1CC3C4CC=C5CC(O)CCC5(C)C4CCC3(C)C1C2C (stereo not drawn)", 92.2]
]}

* * *

growth overview
Test system: K-562 leukemia
Test: NCI-60 one-dose screen, 48 h (100 = growth as untreated, 0 = no growth, -100 = all killed)
Settings: 10 µM unless noted
Compounds without any hit were thinned out: in the full panel of roughly 83,000, 20% have a hit.
Property: growth (%)

{"columns": ["Compound", "Property", "Observed measurement"],
 "data": [
  ["CCOC(=O)c1c(C)cc(=O)oc1C", "growth", 89],
  ["CC1CCC(C(C)C)C(NNC(N)=O)C1 (centres undefined)", "growth", 101],
  ["C/C(=C\\c1ccccc1)c1ccccn1", "growth", 105],
  ["Brc1ccc(SSc2ccc(Br)cc2)cc1", "growth", 89.9],
  ["c1ccc(CNCCNCc2ccccc2)cc1", "growth", 98.1],
  ["CCCCCCCCCCCCCCCc1ccc(N)c(OC2OC(CO)C(O)C(O)C2O)c1 (centres undefined)", "growth", 83.4],
  ["O=c1n(CC2CO2)c(=O)n(CC2CO2)c(=O)n1CC1CO1 (centres undefined)", "growth", 81.3],
  ["CCCCCCCCCCNC(=O)CI", "growth", 0.309],
  ["OC1COC(OCc2ccccc2)C(O)C1O (centres undefined)", "growth", 97.9]
]}

Data provenance: PubChem BioAssay (NCI)
